# Procedure Summary: solvent given as SMILES
# Experimental Parameters: in CCCCC(CC)CO
Under this convention, yes denotes solvation free energy, 298 K strictly below -10 kcal/mol and no denotes solvation free energy, 298 K at or above -10 kcal/mol.

Example cases with answers are listed next.
[HH]    no
O=C1c2ccccc2-c2ccccc21    yes

Given the entry c1ccc2c(c1)Cc1ccccc1-2 , would its reported solvation free energy, 298 K be below -10 kcal/mol? no

====

# Procedure Summary: solvent given as SMILES
# Experimental Parameters: in CCCCCl
Measured solvation free energy, 298 K, listed per entry.
Note: a bare number is incomplete; add the unit.

# example entries with known answers
CCN(CC)CC    -4.57 kcal/mol
Clc1c(Cl)c(Cl)c(Cl)c(Cl)c1Cl    -10.6 kcal/mol
COC(C)(C)C    -3.91 kcal/mol

Field solvation free energy, 298 K (entry CCCCCCCCO ) reads -7.22 kcal/mol

For record C1COCCO1 the listed solvation free energy, 298 K is -4.8 kcal/mol

====

# Procedure Summary: solvent given as SMILES
# Experimental Parameters: in O=CN1CCOCC1
Endpoint: solvation free energy, 298 K (kcal/mol)
Numbers only; they are read as kcal/mol.

CC(C)C    -0.64
CCC1CCCCC1    -3.52
C=CCCCC    -2.37

Value of solvation free energy, 298 K reported for the molecule CCCC is -0.91

Please fill in: solvation free energy, 298 K reported for C1COCCO1 = -4.73

Lab note: CCOC(=O)CC gave solvation free energy, 298 K of -4.3

Reported solvation free energy, 298 K for CC1CCCCC1 was -2.94

Entry under test: CCCCCCCCCC . Its solvation free energy, 298 K was -4.15

So for CCCOC(C)=O , the logged solvation free energy, 298 K turned out to be -4.42

Entry under test: C1=CCCC1 . Its solvation free energy, 298 K was -2.52

Query CCCC(C)=O yields solvation free energy, 298 K of -4.52

====

Below, each entry is listed alongside its reported solvation free energy, 298 K.
# Procedure Summary: solvent given as SMILES
# Experimental Parameters: in Ic1ccccc1
Unit kcal/mol implied. Number only.

CCCC    -2.05
C1COCCO1    -4.94
CCN(CC)CC    -4.33

// CCC : solvation free energy, 298 K value = -1.51

====

# Procedure Summary: solvent given as SMILES
# Experimental Parameters: in CCCCCCCC
Outcome: true (1) for solvation free energy, 298 K of at least -4 kcal/mol; false (0) for anything lower.

As a guide, the following entries are already answered.
C=CC(=C)C    true (1)
O=Cc1ccco1    false (0)
CCCC(C)CO (stereo not given)    false (0)
CC(C)CCC(C)O (stereo not given)    false (0)
CCC#N    true (1)
Oc1ccccc1Cl    false (0)
CCCCCC(=O)OC    false (0)
O=C1c2ccccc2-c2ccccc21    false (0)
Cc1ccc(C=O)o1    false (0)
[HH]    true (1)

Please indicate if the recorded solvation free energy, 298 K for CCC1CCCCC1 meets or exceeds -4 kcal/mol. false (0)

Does CCN have a reported solvation free energy, 298 K of at least -4 kcal/mol? true (1)

Form field: solvation free energy, 298 K at least -4 kcal/mol? Entry: CCC(O)C(C)(C)C (stereo not given) false (0)

Assess whether reported solvation free energy, 298 K for COC(C)(C)C sits at -4 kcal/mol or higher. true (1)

Kindly determine if solvation free energy, 298 K recorded for CCCCC(=O)OC is above or exactly -4 kcal/mol. false (0)

Is it the case that c1ccc2c(c1)ccc1ccccc12 has solvation free energy, 298 K reaching or exceeding -4 kcal/mol? false (0)

Confirm if solvation free energy, 298 K reported for the compound c1ccc2c(c1)Cc1ccccc1-2 is -4 kcal/mol or above. false (0)

Quick check: does Nc1ccc2ccccc2c1 have solvation free energy, 298 K greater than or equal to -4 kcal/mol? false (0)

====

# Procedure Summary: solvent given as SMILES
# Experimental Parameters: in CN(C)P(=O)(N(C)C)N(C)C
Endpoint: solvation free energy, 298 K (kcal/mol)
Numbers only; they are read as kcal/mol.

Check out these entries, answers already filled in.
C1COCCO1    -4.82
C=CC=C    -2.46
CCC    -1.15
CCCC    -1.85
CCC1CCCCC1    -4.49

For reference, reported solvation free energy, 298 K for C=CC(=C)C stands at -2.89

solvation free energy, 298 K in this record for CC(C)C : -1.53

====

A collection of molecules and their measured solvation free energy, 298 K
# Procedure Summary: solvent given as SMILES
# Experimental Parameters: in OCCOCCOCCO
Please respond with the number in kcal/mol and leave the unit unwritten.

C=CCCCCCC    -2.78
CCCCCCCCCCCC    -4.27
CCCc1ccccc1    -4.69

According to the records, this molecule CCC1CCCCC1 displays solvation free energy, 298 K of -3.01

Measured solvation free energy, 298 K, C1COCCO1 : -3.88

// solvation free energy, 298 K value for C=CCCCC : -1.83

Item: Cc1cccc(C)c1 | solvation free energy, 298 K: -4.4

Please fill in: solvation free energy, 298 K reported for CC=CCCC = -2.02

====

# Procedure Summary: solvent given as SMILES
# Experimental Parameters: in ClC(Cl)Cl
Checkbox rule: solvation free energy, 298 K lower than -4 kcal/mol = Met; solvation free energy, 298 K not lower than -4 kcal/mol = Not met.

// known answers, use as guide
N    Not met
C1COCCO1    Met
CCN(CC)CC    Met

Is it true that solvation free energy, 298 K reported for CCC1CCCCC1 is less than -4 kcal/mol? Met

Please determine if COC(C)(C)C is below -4 kcal/mol in terms of solvation free energy, 298 K. Met

Hello, I'm reviewing records and need to know if solvation free energy, 298 K of CCOC=O is below -4 kcal/mol. Could you check? Met

I'd appreciate it if you could check whether FC(F)(Cl)C(F)(Cl)Cl has solvation free energy, 298 K smaller than -4 kcal/mol. Not met

Is solvation free energy, 298 K of [HH] strictly below -4 kcal/mol? Not met

Below -4 kcal/mol on solvation free energy, 298 K? Entry O=C(c1ccccc1)C(O)c1ccccc1 (configuration not stated) Met

Determine whether this molecule shows solvation free energy, 298 K lower than -4 kcal/mol (ties excluded): CCC1CO1 (configuration not stated) Met

====

# Procedure Summary: solvent given as SMILES
# Experimental Parameters: in CCCCCO
Endpoint: solvation free energy, 298 K (kcal/mol)
Report as a plain number; the unit kcal/mol is understood.

Solved cases (5 shown):
CC(C)C    -1.79
COc1ccccc1C(=O)O    -10.9
O=C1c2ccccc2-c2ccccc21    -10.6
CCCCCCCCCCCCCCCCCCCCCCCCCCCC    -17
Cc1c(C(=O)O)cc([N+](=O)[O-])cc1[N+](=O)[O-]    -16

What the record says about CC1CCCC1 : solvation free energy, 298 K is -3.51

For reference, reported solvation free energy, 298 K for CCN(CC)CC stands at -4.97

solvation free energy, 298 K recorded for this molecule, c1ccc2c(c1)ccc1ccccc12 , is -10

Query O=C(O)c1ccccc1O yields solvation free energy, 298 K of -10.2

====

# Procedure Summary: solvent given as SMILES
# Experimental Parameters: in O=C1CCCCC1
Endpoint: solvation free energy, 298 K (kcal/mol)
Kindly answer with a numeric value in kcal/mol, unit omitted.

Here is how some compounds turned out for solvation free energy, 298 K.
c1cc2ccc3ccc4ccc5cccc6c(c1)c2c3c4c56    -19.4
O=C(O)C=CC(=O)O    -9.9
C=CC(=C)C    -3.22
CCC1CCCCC1    -4.85

For record ClC(Cl)Cl the listed solvation free energy, 298 K is -4.73

Just so you know, measured solvation free energy, 298 K for O=C(O)CCCC(=O)O came out at -12.1

According to the records, this compound c1ccc2c(c1)ccc1ccccc12 displays solvation free energy, 298 K of -11.4

Measured solvation free energy, 298 K, [HH] : 1.75

The compound O=C(O)c1ccccc1O showed solvation free energy, 298 K equal to -10.4

In plain terms, CCN(CC)CC has a documented solvation free energy, 298 K of -4.11

Quick note, solvation free energy, 298 K for C1COCCO1 landed at -4.98

====

# Procedure Summary: solvent given as SMILES
# Experimental Parameters: in O
Endpoint: solvation free energy, 298 K (kcal/mol)
Express it in kcal/mol; write the number only.

CC(C)=CCCC(C)CCCC(C)CCCC(C)C (stereo not drawn)    3.72
Cc1ccc(C(=O)O)cc1C    -6.55
COc1cc(C=O)c(Cl)c(OC)c1O    -7.78
c1ccc2c(c1)[nH]c1ccccc12    -7.18
Cc1nc(NS(=O)(=O)c2ccc(N)cc2)oc1C    -17.7
CCCNCCC    -3.65

// sample C=C(c1ccccc1)c1ccccc1 , its solvation free energy, 298 K was -2.78

// CCNCc1ccc(C)cc1 : solvation free energy, 298 K value = -6.02
